System: Escherichia coli TOP10;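 further: peptides expressed intracellularly from a pBAD plasmid library in pooled LB shake-flask culture, induced with 0.3% L-arabinose, DNA abundance read by NGS, three biological replicates, DESeq2 with apeglm shrinkage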
assay_details: shrunken log2 fold change of peptide-encoding DNA abundance (4.5 h post-induction vs induction); higher = less antimicrobial activity (less host growth inhibition)
experimental_setup: time post-induction: 4.5 h; library: site-saturation at positions 5, 18, 19, 20

{"query_sequence": "RRIRCRPPRLPRPRPRPHERPRP", "system": "Escherichia coli TOP10", "shrunken log2 fold change": -0.0193}
{"query_sequence": "RRIRNRPPRLPRPRPRPAEYPRP", "system": "Escherichia coli TOP10", "shrunken log2 fold change": 0.0714}
{"query_sequence": "RRIRMRPPRLPRPRPRPQCVPRP", "system": "Escherichia coli TOP10", "shrunken log2 fold change": 0.039}
{"query_sequence": "RRIRCRPPRLPRPRPRPILPPRP", "system": "Escherichia coli TOP10", "shrunken log2 fold change": -0.287}
{"query_sequence": "RRIRKRPPRLPRPRPRPLRYPRP", "system": "Escherichia coli TOP10", "shrunken log2 fold change": 0.227}
{"query_sequence": "RRIRNRPPRLPRPRPRPIEAPRP", "system": "Escherichia coli TOP10", "shrunken log2 fold change": 0.0895}
{"query_sequence": "RRIRWRPPRLPRPRPRPGKQPRP", "system": "Escherichia coli TOP10", "shrunken log2 fold change": 0.151}
{"query_sequence": "RRIRLRPPRLPRPRPRPCWGPRP", "system": "Escherichia coli TOP10", "shrunken log2 fold change": 0.00437}
